- SYSTEM_NAME: HTRA1, Q92743
- Sequence (Q92743 360-477): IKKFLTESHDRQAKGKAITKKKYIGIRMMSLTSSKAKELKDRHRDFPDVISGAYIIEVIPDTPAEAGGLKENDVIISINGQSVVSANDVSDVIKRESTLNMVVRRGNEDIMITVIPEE
- PROTOCOL_NOTES: holdup assay
- Set-up: key: below the threshold = too weak to quantify, mostly under pKd 3.1 to 4
- CONDITION_LABEL: plain residues with an end cap or a label only (N-terminal biotin on a linker: ado-ado)
Below is a list of entries, each paired with its recorded pKd value.
READOUT: pKd

# BINDER, READING
data = [
    ("EDGESWEYQI [TRPV6, Q9H1D0]", 4.45),
    ("VKRNSKETVV [MARCHF3, Q86UD3]", 4.35),
    ("EIPAQSPTCV [FZD10, Q9ULW2]", 4.57),
    ("SFISKKEWYV [NECTIN1, Q15223]", 5.24),
]
